System: T47D (PI3Kα-H1047R) cell line
Assay: HTRF phospho-AKT(S473) cell assay in T47D cells
Format: cell-based, human
Conditions: Homo sapiens; HTRF phospho-AKT(S473), T47D (PI3Kα-H1047R) cells, 2 hours compound incubation
REPORTED METRIC: IC50

Some compounds with known IC50 results, for comparison:
Cc1cc([C@@H](C)Nc2ccc(Cl)nc2C(=O)NS(C)(=O)=O)c2nc(N3CCC(c4c(F)cnn4C(F)F)CC3)n(C)c(=O)c2c1 [Compound 464]
250 to 500 nM
Cc1cc([C@@H](C)Nc2ccc(Cl)nc2C(=O)NS(C)(=O)=O)c2nc(N3C[C@@H]4[C@H](C3)[C@H]4c3nn(C)cc3F)n(C3CC3)c(=O)c2c1 [Compound 466]
250 to 500 nM
Cc1cc([C@@H](C)Nc2ccc(Cl)nc2C(=O)NS(C)(=O)=O)c2nc(N3CCC[C@H](c4ccn(C(F)F)n4)C3)n(C)c(=O)c2c1 (relative stereo) [Compound 770]
250 to 500 nM

Let's switch to this compound now.
Incoming: Short answer please: IC50, T47D (PI3Kα-H1047R) cell line, entry Cc1cc([C@@H](C)Nc2ccc(Cl)nc2C(=O)NS(C)(=O)=O)c2nc(N3CCC(c4ncc(C(F)F)cn4)CC3)n(C)c(=O)c2c1 [Compound 504]
Outgoing: < 250 nM
